Origin of the recorded values: paper PMC5540273

The compounds listed here are annotated with their %Inh.
Test system: SBK1
Settings: concentration: 1 μM, replicates: in singlicate; n = 1;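 further: KINOMEscan kinase panel screen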

- COMPOUND: "CN1c2ccc(NCc3ccc(F)cc3)cc2-c2c(cnn2C)S1(=O)=O"
  %Inh, %: 0
- COMPOUND: "O=c1cc(N2CCOCC2)nc2n(Cc3cccc4ccccc34)ccn12"
  %Inh, %: 14
- COMPOUND: "CCc1ccnc(/C=C/c2n[nH]c3cc(Sc4ccccc4C(=O)NC)ccc23)c1"
  %Inh, %: 16
- COMPOUND: "COc1cc2ncn(-c3cc(OCc4sccc4Cl)c(C(N)=O)s3)c2cc1OC"
  %Inh, %: 4
- COMPOUND: "CSc1ccc(-c2cc3ncnc(SCC(=O)O)c3s2)cc1"
  %Inh, %: 0
- COMPOUND: "COc1ccc(CNC(=O)NC2CCN(c3ccnc(Nc4ccc(OC)cc4)n3)C2)cc1 (stereo not shown)"
  %Inh, %: 3
- COMPOUND: "Nc1nccc(-c2c(-c3ccc(F)cc3)ncn2C2CCN(CC(F)(F)F)CC2)n1"
  %Inh, %: 0

----------
Tested on: TGFBR1
Conditions: concentration: 1 μM, replicates: in singlicate; n = 1
The compounds listed here are annotated with their %Inh.
ASSAY READOUT: %Inh (%)

- COMPOUND: "CSc1ccc(-c2cc3ncnc(SCC(=O)O)c3s2)cc1"
  MEASURED: 0
- COMPOUND: "CC(=O)Nc1ccc(COc2ccc(Nc3ccnc4cc(-c5ccccn5)ccc34)cc2)cc1.Cl [GW440148]"
  MEASURED: 8
- COMPOUND: "COc1ccc(COc2cc(-n3cnc4ccccc43)sc2C(N)=O)cc1 [GSK1024304]"
  MEASURED: 0
- COMPOUND: "O=c1cc(N2CCOCC2)nc2n(Cc3cccc(Cl)c3Cl)c(C3CC3)nn12 [GSK2358994]"
  MEASURED: 0
- COMPOUND: "CCn1cnc2c(N)ncnc21 [GW345098]"
  MEASURED: 0
- COMPOUND: "Fc1ccc(-c2ncn(CCCN3CCOCC3)c2-c2cccnc2)cc1 [SB-211743]"
  MEASURED: 26
- COMPOUND: "Cl.Nc1ncnc2occ(-c3ccc(NC(=O)Nc4cc(C(F)(F)F)ccc4F)cc3)c12 [SB-707548]"
  MEASURED: 33
- COMPOUND: "COc1ccc(CNC(=O)NC2CCN(c3ccnc(Nc4ccc(OC)cc4)n3)C2)cc1 (stereo not drawn) [GSK1379727]"
  MEASURED: 38
- COMPOUND: "N#Cc1c(N2CCOCC2)sc(-c2ccn[nH]2)c1-c1ccc(Cl)cc1"
  MEASURED: 19
- COMPOUND: "CC(C)(C)n1cnc2c(N)ncnc21 [SKF-97359]"
  MEASURED: 30
- COMPOUND: "NCC(NC(=O)c1cc(-c2cn[nH]c2)c(-c2ccnc3[nH]ccc23)s1)c1ccccc1.O=C(O)C(F)(F)F.O=C(O)C(F)(F)F (stereo not drawn) [GSK1325775]"
  MEASURED: 4
- COMPOUND: "O=c1cc(N2CCOCC2)nc2n(Cc3cccc4ccccc34)ccn12 [GSK2333389]"
  MEASURED: 17
- COMPOUND: "Cc1ccc(C(=O)NCC(N)=O)cc1-n1c(C)cc(OCc2ccc(F)cc2F)c(Br)c1=O"
  MEASURED: 36
- COMPOUND: "O=C1NC(=O)C(N2CCc3ccccc32)=C1c1cccc(Cl)c1 [SB-408010]"
  MEASURED: 0
- COMPOUND: "O=C1Cc2cc(Nc3nc(NCc4cccc(S(=O)(=O)C(F)(F)F)c4)ncc3C(F)(F)F)ccc2N1"
  MEASURED: 0
- COMPOUND: "CN1c2ccc(NCc3ccc(F)cc3)cc2-c2c(cnn2C)S1(=O)=O"
  MEASURED: 2
- COMPOUND: "Fc1ccc(-c2nn3c(OCC(F)(F)F)cccc3c2-c2ccncc2)cc1 [GW514784]"
  MEASURED: 39
- COMPOUND: "Cc1c(Cn2c(C)nn3c(=O)cc(N4CCOC(C)C4)nc23)cccc1C(F)(F)F (stereo not drawn) [GSK2344444]"
  MEASURED: 0

----------
Tested on: EPHA3
Settings: concentration: 1 μM, replicates: in singlicate; n = 1

- COMPOUND: "Cc1cn2c(=O)cc(N3CCOCC3)nc2n1Cc1cccc(Cl)c1Cl [GSK2334006]"
  %Inh, %: 0
- COMPOUND: "COc1cc(Nc2nccc(N3CCC(NC(=O)c4cccc(NC(C)=O)c4)C3)n2)cc(OC)c1OC (stereo not drawn) [GSK1379754]"
  %Inh, %: 0
- COMPOUND: "NS(=O)(=O)c1cccc(-c2ccc3ncc(N4CCOCC4)nc3c2)c1 [GSK1535721]"
  %Inh, %: 11
- COMPOUND: "COc1ccc(Nc2nccc(N3CCC(NC(=O)Nc4cccc(C(C)=O)c4)C3)n2)cc1 (stereo not drawn) [GSK1379731]"
  %Inh, %: 0
- COMPOUND: "c1ccc(-c2n[nH]cc2-c2ccnc3ccccc23)nc1 [GW271431]"
  %Inh, %: 14
- COMPOUND: "NS(=O)(=O)CCc1cccc(Nc2nccc(-c3c(-c4cccc(NC(=O)c5c(F)cccc5F)c4)nn4ccccc34)n2)c1 [GSK336735]"
  %Inh, %: 30
- COMPOUND: "CSc1ccc(-c2cc3ncnc(SCC(=O)O)c3s2)cc1"
  %Inh, %: 0
- COMPOUND: "CNc1ncnc2[nH]ncc12 [SKF-18355]"
  %Inh, %: 11
- COMPOUND: "COc1ccc(Nc2ncc(C#N)c(Nc3ccccc3C(N)=O)n2)cc1N1CCN(C)CC1.Cl [GSK1558669]"
  %Inh, %: 95
- COMPOUND: "Cc1c(Cn2c(C)nn3c(=O)cc(N4CCOC(C)C4)nc23)cccc1C(F)(F)F (stereo not drawn) [GSK2344444]"
  %Inh, %: 0
- COMPOUND: "O=C1NC(=O)C(N2CCc3ccccc32)=C1c1cccc(Cl)c1 [SB-408010]"
  %Inh, %: 0
- COMPOUND: "N#Cc1c(N2CCOCC2)sc(-c2ccn[nH]2)c1-c1ccc(Cl)cc1"
  %Inh, %: 11
- COMPOUND: "O=C(c1ccc(-c2cc(-c3c[nH]nc3-c3ccccn3)ccn2)cc1)N1CCOCC1 [GW812171]"
  %Inh, %: 17
- COMPOUND: "Cc1nnc(-c2ccc(C)c(-c3ccc(C(=O)Nc4ccc(NS(C)(=O)=O)cc4)cc3)c2)o1 [GW702865]"
  %Inh, %: 8
- COMPOUND: "O=C1Cc2cc(Nc3nc(NCc4cccc(S(=O)(=O)C(F)(F)F)c4)ncc3C(F)(F)F)ccc2N1"
  %Inh, %: 0
- COMPOUND: "Cc1ccc(C(=O)NCC(N)=O)cc1-n1c(C)cc(OCc2ccc(F)cc2F)c(Br)c1=O"
  %Inh, %: 0
- COMPOUND: "CC(C)Oc1ccc2c(-c3ccnc(Nc4ccc(N5CCN(C)CC5)cc4)n3)cnn2n1 [GW696155]"
  %Inh, %: 33
- COMPOUND: "O=c1cc(N2CCOCC2)nc2n(Cc3cccc(Cl)c3Cl)c(C3CC3)nn12 [GSK2358994]"
  %Inh, %: 0

----------
Tested on: ROS1
Conditions: concentration: 1 μM, replicates: in singlicate; n = 1
The molecules listed here are annotated with their %Inh.

- MOLECULE: "COc1cc(Nc2nccc(N3CCC(NC(=O)c4cccc(NC(C)=O)c4)C3)n2)cc(OC)c1OC (stereo not shown) [GSK1379754]"
  %Inh (%): 44
- MOLECULE: "Fc1ccc(-c2ncn(CCCN3CCOCC3)c2-c2ccccn2)cc1 [SB-211742]"
  %Inh (%): 0
- MOLECULE: "Cc1cccc(-c2nc(-c3ccc(S(C)(=O)=O)cc3)sc2-c2ccncc2)c1"
  %Inh (%): 23
- MOLECULE: "Cc1ccc(NC(=O)c2ccnc(N3CCN(C)CC3)c2)cc1-c1ccc(C(=O)NCC2CC2)cc1 [GW775604]"
  %Inh (%): 0

----------
Test system: TAOK1
Conditions: concentration: 1 μM, replicates: in singlicate; n = 1
ASSAY READOUT: %Inh (%)

- CHEMICAL STRING: "Cc1ccc(C(=O)NCC(N)=O)cc1-n1c(C)cc(OCc2ccc(F)cc2F)c(Br)c1=O"
  UNIT: "%"
  MEASURED: 0
- CHEMICAL STRING: "Cn1ccc2ncnc(Oc3ccc(NC(=O)Nc4ccncc4)c(Cl)c3)c21"
  UNIT: "%"
  MEASURED: 0
- CHEMICAL STRING: "O=C(Nc1n[nH]c2cc(-c3cccc(F)c3)ccc12)C1CC1"
  UNIT: "%"
  MEASURED: 40
- CHEMICAL STRING: "Cc1cccc(-c2nc(Nc3ccc4ncsc4c3)c3ccccc3n2)n1"
  UNIT: "%"
  MEASURED: 23
- CHEMICAL STRING: "c1ccc(-c2cc(-c3c[nH]nc3-c3ccccn3)ccn2)cc1"
  UNIT: "%"
  MEASURED: 0
